assayed-target: Fatty acid synthase (Homo sapiens, UniProt P49327)
Sequence (P49327 whole entry, the tested form may be a part): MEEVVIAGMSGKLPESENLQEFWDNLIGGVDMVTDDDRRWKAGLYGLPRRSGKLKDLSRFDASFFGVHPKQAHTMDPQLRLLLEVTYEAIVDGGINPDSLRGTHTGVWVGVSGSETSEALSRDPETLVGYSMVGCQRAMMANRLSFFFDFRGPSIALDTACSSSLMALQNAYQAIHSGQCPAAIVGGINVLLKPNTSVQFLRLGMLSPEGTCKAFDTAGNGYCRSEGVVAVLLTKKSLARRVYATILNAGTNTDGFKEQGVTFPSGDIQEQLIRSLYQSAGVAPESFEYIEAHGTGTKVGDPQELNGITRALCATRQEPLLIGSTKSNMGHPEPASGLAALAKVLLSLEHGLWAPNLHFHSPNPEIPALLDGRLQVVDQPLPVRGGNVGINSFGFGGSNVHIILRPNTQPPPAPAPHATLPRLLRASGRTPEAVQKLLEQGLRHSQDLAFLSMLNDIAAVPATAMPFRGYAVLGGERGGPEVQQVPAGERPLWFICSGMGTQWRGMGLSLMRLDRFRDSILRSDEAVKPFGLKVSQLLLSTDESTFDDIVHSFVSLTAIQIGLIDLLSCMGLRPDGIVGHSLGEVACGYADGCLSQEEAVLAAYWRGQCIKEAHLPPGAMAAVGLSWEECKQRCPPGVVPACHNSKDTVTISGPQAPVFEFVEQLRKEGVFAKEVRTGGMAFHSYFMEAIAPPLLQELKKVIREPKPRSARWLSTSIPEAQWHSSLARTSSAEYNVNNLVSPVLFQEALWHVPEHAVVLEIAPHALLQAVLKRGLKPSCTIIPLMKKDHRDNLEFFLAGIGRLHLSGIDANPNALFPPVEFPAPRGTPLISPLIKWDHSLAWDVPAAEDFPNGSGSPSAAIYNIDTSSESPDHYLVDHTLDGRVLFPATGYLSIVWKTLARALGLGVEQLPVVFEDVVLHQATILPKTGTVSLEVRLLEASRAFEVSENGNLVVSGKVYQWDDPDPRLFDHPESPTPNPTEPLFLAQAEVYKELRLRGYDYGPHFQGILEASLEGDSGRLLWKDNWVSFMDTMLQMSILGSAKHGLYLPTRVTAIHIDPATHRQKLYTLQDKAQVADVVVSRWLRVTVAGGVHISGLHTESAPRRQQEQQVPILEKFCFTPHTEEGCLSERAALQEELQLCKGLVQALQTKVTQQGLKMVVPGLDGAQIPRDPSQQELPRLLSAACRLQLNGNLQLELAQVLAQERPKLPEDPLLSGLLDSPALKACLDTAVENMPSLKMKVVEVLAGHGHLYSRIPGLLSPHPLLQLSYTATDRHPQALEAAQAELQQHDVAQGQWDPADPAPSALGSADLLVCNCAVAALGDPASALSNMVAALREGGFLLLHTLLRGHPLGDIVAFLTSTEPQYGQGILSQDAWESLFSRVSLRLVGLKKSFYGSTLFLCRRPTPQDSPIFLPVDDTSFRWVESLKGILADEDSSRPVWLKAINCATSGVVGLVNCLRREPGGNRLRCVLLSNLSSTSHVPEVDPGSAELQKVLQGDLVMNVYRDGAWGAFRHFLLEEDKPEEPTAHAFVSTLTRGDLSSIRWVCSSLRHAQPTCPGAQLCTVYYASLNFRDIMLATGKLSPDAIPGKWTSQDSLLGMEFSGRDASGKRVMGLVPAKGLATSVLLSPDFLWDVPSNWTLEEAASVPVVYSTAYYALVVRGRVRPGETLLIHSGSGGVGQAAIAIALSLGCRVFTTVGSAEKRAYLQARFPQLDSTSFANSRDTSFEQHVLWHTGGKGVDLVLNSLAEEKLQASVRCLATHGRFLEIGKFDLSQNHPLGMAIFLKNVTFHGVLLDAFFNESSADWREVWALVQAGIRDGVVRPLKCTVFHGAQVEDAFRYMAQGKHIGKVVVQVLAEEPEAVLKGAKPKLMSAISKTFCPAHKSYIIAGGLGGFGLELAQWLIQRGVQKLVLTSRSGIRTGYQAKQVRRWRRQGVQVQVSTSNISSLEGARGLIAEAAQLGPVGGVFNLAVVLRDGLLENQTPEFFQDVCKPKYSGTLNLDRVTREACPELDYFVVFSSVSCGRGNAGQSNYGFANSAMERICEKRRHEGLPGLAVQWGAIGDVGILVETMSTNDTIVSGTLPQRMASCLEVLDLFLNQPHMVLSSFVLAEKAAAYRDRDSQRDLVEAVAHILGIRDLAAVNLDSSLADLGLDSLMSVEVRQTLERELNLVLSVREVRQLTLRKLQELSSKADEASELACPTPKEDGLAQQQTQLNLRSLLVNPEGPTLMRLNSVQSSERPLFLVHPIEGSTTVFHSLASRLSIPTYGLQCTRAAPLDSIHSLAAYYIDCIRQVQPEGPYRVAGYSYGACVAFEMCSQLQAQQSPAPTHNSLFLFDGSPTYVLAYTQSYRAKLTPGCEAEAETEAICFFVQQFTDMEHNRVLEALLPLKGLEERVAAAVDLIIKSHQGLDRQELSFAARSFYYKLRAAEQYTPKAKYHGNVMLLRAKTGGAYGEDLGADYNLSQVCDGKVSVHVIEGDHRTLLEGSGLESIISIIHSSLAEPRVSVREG
protocol-text: FAS thioesterase domain inhibitors, dose response, biochemical, endpoint fluorescence intensity, uHTS hits (AID 624327);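 note: fluorescence from hydrolysis of an O-methyl fluorescein acyl ester substrate by the enzyme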
Type: functional
Calls of active or inactive are those of the source.

[
  {
    "molecule": "COC(=O)c1cc(C(=O)OCC(=O)c2ccc3c(c2)NC(=O)CO3)cc([N+](=O)[O-])c1",
    "assayed-target": "Fatty acid synthase (Homo sapiens, UniProt P49327)",
    "IC50": "13.6 µM (active)"
  },
  {
    "molecule": "Cc1nn(C)cc1C(C(=O)NC1CCCCC1)N(C(=O)Cc1cccs1)c1ccc(C(C)C)cc1 (stereo not given)",
    "assayed-target": "Fatty acid synthase (Homo sapiens, UniProt P49327)",
    "IC50": "8.86 µM (active)"
  },
  {
    "molecule": "O=C(NC1CCCCC1)N(c1ccccc1)c1nnc(-c2cccc([N+](=O)[O-])c2)s1",
    "assayed-target": "Fatty acid synthase (Homo sapiens, UniProt P49327)",
    "IC50": "6.12 µM (active)"
  },
  {
    "molecule": "CCN(CC)S(=O)(=O)c1ccc(-n2cnc3cc(C)c(C)cc32)nc1",
    "assayed-target": "Fatty acid synthase (Homo sapiens, UniProt P49327)",
    "IC50": "11.4 µM (active)"
  },
  {
    "molecule": "CN(C)CCCNC(=O)CC1C[C@H](C(=O)N2CCOCC2)[C@@]2(CCC3CCCC3)c3[nH]c4ccccc4c3CCN2C1=O (stereo not given in full)",
    "assayed-target": "Fatty acid synthase (Homo sapiens, UniProt P49327)",
    "IC50": "2.12 µM (active)"
  }
]

* * *

assayed-target: Corticotropin-releasing factor receptor 2/Corticotropin-releasing factor-binding protein (Homo sapiens, UniProt P24387+Q13324)
Sequence (Q13324 whole entry): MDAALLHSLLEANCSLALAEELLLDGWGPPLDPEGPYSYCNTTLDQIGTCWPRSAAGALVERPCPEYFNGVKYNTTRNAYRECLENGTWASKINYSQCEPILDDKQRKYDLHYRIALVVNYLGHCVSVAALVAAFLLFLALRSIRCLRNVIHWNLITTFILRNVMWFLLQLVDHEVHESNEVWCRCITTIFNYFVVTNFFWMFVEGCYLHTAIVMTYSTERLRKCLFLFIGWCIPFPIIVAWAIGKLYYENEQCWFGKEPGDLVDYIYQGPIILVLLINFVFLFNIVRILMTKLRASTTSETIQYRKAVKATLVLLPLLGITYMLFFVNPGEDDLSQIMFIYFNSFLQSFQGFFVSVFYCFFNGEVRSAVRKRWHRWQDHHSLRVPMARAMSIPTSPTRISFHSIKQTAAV
Sequence (P24387 whole entry): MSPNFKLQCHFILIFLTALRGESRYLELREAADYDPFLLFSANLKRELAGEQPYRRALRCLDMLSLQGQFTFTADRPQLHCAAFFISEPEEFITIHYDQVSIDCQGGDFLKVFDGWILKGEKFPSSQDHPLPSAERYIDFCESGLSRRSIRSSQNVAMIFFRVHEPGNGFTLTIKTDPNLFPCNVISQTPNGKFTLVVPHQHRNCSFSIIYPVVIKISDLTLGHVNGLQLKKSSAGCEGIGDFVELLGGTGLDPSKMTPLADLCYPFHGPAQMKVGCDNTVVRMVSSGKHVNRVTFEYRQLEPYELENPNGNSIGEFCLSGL
protocol-text: activators of CRF receptor 2 with binding protein – uHTS hits, confirmation (AID 602473)
Format: functional
protocol-conditions: read-out: EC50_Mean
Active and inactive are the calls of the source.
Possible outcomes: active, inactive

[
  {
    "compound": "CCOC(=O)c1cc2c(=O)c3cc(C)ccc3oc2nc1C",
    "classification": "inactive"
  },
  {
    "compound": "COc1ccc(C)cc1NCc1cccc(OC)c1OC",
    "classification": "inactive"
  },
  {
    "compound": "CCC(CC)NC(=O)CC(c1ccccc1)c1ccccc1",
    "classification": "inactive"
  },
  {
    "compound": "Cc1c(Cl)c([N+](=O)[O-])nn1CCCC(=O)Nc1cc(Oc2ccccc2)cc([N+](=O)[O-])c1",
    "classification": "inactive"
  },
  {
    "compound": "Cc1ccnc(NC(=O)c2cccc(S(=O)(=O)N3CCCC3)c2)c1",
    "classification": "inactive"
  },
  {
    "compound": "O=C(NN/C=C1\\C(=O)N(c2ccc(Cl)cn2)C(=O)c2ccccc21)c1ccncc1",
    "classification": "active"
  },
  {
    "compound": "COc1cc(/C=C(/C#N)c2nc(O)c3ccccc3n2)ccc1O",
    "classification": "inactive"
  },
  {
    "compound": "Cc1nn(C)cc1CN(C)C(=O)c1ccc(OC2CCN(Cc3ccccn3)CC2)cc1",
    "classification": "inactive"
  },
  {
    "compound": "Cc1cccc(-n2c(C)cc(C=C3C(=O)c4ccccc4C3=O)c2C)c1",
    "classification": "active"
  }
]

Source listed as ChEMBL document CHEMBL1201862.
